Every entry's value here was drawn from the supplement of paper PMC12645437.

Target: T1, CRBN, Q96SW2;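 also: pooled lentiviral library of zinc finger degron-EGFP fusions in mCherry-positive Jurkat cells, FACS-sorted after compound exposure, with degron abundance counted by next-generation sequencing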
T1 chain: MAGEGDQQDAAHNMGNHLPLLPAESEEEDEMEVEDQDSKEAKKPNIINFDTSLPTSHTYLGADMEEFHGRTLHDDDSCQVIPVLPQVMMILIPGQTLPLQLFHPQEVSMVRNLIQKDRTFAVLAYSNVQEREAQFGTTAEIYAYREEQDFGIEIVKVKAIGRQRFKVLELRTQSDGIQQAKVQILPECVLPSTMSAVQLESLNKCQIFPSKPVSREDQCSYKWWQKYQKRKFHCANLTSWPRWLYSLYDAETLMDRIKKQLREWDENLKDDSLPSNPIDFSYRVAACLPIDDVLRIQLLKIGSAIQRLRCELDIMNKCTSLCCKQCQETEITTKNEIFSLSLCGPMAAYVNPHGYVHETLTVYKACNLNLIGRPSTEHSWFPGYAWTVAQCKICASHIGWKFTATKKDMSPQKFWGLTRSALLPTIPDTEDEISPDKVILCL
Assay: log2 fold change of degron read counts, EGFP-low vs EGFP+ sorted cells (limma voom), compound-induced degradation; higher = more compound-induced degradation of the degron-EGFP fusion; degrons are variants of IKZF1/3 zinc finger 2; compound dose not given here
Details: Jurkat; 18 h; compound: thalidomide
Over roughly 8,300 sequences, “log2 fold change of degron read counts, EGFP-low vs EGFP+ sorted cells (limma voom), compound-induced degradation” has its median near -1.1; the highest 2% begin near 3.2. This is one part of a sample in which the highest values are shown more often than they occur.
Task for the reader: assign each of the following sequences its reported log2 fold change of degron read counts.
Answers are plain numbers.

The examples below pair each entry with its known result.
monomer_sequence="FECEICGRNFTQKGNLLRHIKL [46F_47E_49E_50I_52G_53R_54N_55F_67L_, Q9UKT9]" recorded_value=-0.731
monomer_sequence="LRCPICGFQCTQKGNLLRHIKL [46L_47R_49P_50I_52G_53F_54Q_55C_67L_, Q9UKT9]" recorded_value=1.62
monomer_sequence="FSCPVCGAPFTQKGNLLRHIKL [46F_47S_49P_50V_52G_53A_54P_55F_67L_, Q9UKT9]" recorded_value=2.12
monomer_sequence="LCCPICGFQCTQKGNLLRHIKL [46L_47C_49P_50I_52G_53F_54Q_55C_67L_, Q9UKT9]" recorded_value=2.48
monomer_sequence="LQCPICGFQCTQKGNLLRHIKL [46L_47Q_49P_50I_52G_53F_54Q_55C_67L_, Q9UKT9]" recorded_value=3.45
monomer_sequence="LMCPICGFQCTQKGNLLRHIKL [46L_47M_49P_50I_52G_53F_54Q_55C_67L_, Q9UKT9]" recorded_value=2.37

Field: next sequence
Request the reported log2 fold change of degron read counts associated with LFCPICGFQCTQKGNLLRHIKL [46L_47F_49P_50I_52G_53F_54Q_55C_67L_, Q9UKT9]
2.04
